Taken from a melting point compilation (Tetko et al.; mined from patent text by program, amines drawn as free bases though some values may be those of a salt).

Catalogue of molecules with associated melting point

Examples with answers:
# input State its melting point: "CCCCOc1ccc(CCCCCCCCC(=O)NO)cc1"
# output 99 to 101 °C

# input State its melting point: N#CC(C=N)CC(=O)c1ccccc1F (stereo not given)
# output 120 to 122 °C

# input State its melting point: "Cc1oc(-c2ccccc2)nc1COc1cccc(CN(O)C(N)=O)c1"
# output 151 to 152 °C

# input State its melting point: "Cc1c(-c2ccc(O)cc2)n(C(=O)c2ccc(OCCN3CCCCC3)cc2)c2ccc(O)cc12"
# output 127 to 130 °C

# input State its melting point: O=[N+]([O-])c1nccn1CC(O)CN1CC1 (stereo not given)
# output 118 to 120 °C

---
# input State its melting point: "O=C(NCc1ccccc1)c1cc([N+](=O)[O-])ccc1N[C@H]1CC[C@H](O)CC1"
# output 233 to 234 °C

# input State its melting point: "O=C(OCc1cc(F)nc(F)c1F)c1ccccc1"
# output 73 to 76 °C

# input State its melting point: "CCCCc1nc2c(N)nc3cccnc3c2n1CCCCN"
# output 212 to 213 °C

# input State its melting point: CC1=CC(O)C(OC(=O)C=Cc2ccccc2)C(C)(C)CC1=O (stereo not given)
# output 85.5 to 87 °C

# input State its melting point: "C[C@H]([C@](O)(Cn1cncn1)c1ccc(F)cc1F)S(=O)(=O)N1CCN(c2ccc(F)cc2)CC1"
# output 128 to 130 °C

* * *

Catalogue of compounds with associated melting point

Examples with answers:
# input State its melting point: "CC1(C)CCc2c(N3CCOCC3)nc3sc4c(NCCc5c[nH]cn5)ncnc4c3c2C1"
# output 223 to 224 °C

# input State its melting point: "N#CC=C1OC(=O)c2ccccc21"
# output 178 to 180 °C

In the following, a different compound is considered.
# input State its melting point: "COC(=O)c1cc(-c2cccc(Cl)c2Cl)c(C(=O)OC)[nH]1"
# output 143 to 145 °C

* * *

Catalogue of molecules with associated melting point

Examples with answers:
# input State its melting point: "Cc1cc(C)cc(S(=O)(=O)c2cccc(F)c2C#N)c1"
# output 167 to 168 °C

# input State its melting point: Cc1ccc(C2CCCN2S(=O)(=O)c2ccc(F)cc2)c(C)c1 (racemic)
# output 134 °C

# input State its melting point: CCC(C(=O)O)c1ccc2c(=O)c3ccccc3ccc2c1 (stereo not given)
# output 147 to 148 °C

# input State its melting point: "Cn1nc(-c2cccs2)c(N)c1N"
# output 154 to 155 °C

# input State its melting point: "CCCC(C)(C)NC(=S)Nc1cc(Cl)cc(Cl)c1"
# output 115 to 117 °C

# input State its melting point: NC1(c2ccccc2Cl)C(=O)Nc2ccc(Cl)cc21 (stereo not given)
# output 174 to 176 °C

---
# input State its melting point: "COc1ccc(S(=O)(=O)N(COCC[Si](C)(C)C)c2ccccc2-c2cc(F)ccc2C(C)=O)cc1"
# output 94 to 95 °C

# input State its melting point: "COC(=O)/C=C/C=C(c1ccccc1OC)c1ccccc1OC"
# output 100 to 102 °C

# input State its melting point: "C[C@@H]1C(=O)N(c2ccc(C#N)c(C(F)(F)F)c2)[C@@H](C)[C@H]1O"
# output 82 to 85 °C

# input State its melting point: "CCc1cccc(CC)c1NC(=O)NC(c1ccccc1)c1ccccc1"
# output 238 to 240 °C
